Source: ChEMBL document CHEMBL5291721

- Tested target: UniProt P0DMS8
- Sequence (P0DMS8 whole entry): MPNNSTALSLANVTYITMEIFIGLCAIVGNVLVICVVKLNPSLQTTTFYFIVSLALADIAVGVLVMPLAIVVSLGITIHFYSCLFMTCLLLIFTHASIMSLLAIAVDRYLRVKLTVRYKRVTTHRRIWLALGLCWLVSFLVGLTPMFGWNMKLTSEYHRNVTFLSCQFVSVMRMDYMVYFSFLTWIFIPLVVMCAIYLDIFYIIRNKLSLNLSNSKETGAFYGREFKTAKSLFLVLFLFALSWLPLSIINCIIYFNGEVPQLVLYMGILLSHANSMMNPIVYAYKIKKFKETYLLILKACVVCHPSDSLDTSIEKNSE
Measurement kind: AC50

[ask] State its AC50 on UniProt P0DMS8: `CCn1cc(C(=O)O)c(=O)c2cc3c(cc21)OCO3`
[reply] > 30 µM

----------
# Lookup of reported AC50 keyed by entry
- Tested target: UniProt P28223
- Sequence (P28223 whole entry): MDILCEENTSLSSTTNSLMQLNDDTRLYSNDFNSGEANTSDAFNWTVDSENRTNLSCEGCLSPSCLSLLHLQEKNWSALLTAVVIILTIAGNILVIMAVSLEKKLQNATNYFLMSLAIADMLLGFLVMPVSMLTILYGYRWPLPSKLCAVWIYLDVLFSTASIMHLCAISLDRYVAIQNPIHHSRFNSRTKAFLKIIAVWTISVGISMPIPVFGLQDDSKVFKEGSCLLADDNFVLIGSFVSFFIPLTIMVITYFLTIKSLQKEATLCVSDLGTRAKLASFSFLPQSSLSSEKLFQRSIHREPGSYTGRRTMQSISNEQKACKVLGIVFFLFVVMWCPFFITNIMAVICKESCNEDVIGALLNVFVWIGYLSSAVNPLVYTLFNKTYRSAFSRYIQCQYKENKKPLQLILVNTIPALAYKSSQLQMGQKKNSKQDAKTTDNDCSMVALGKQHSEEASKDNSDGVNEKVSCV
- Assay type: functional, cell-based

Before answering, review these 5 worked examples.
Molecule: C=C[C@@]1(C)CC(=O)[C@]2(O)[C@@]3(C)[C@@H](O)CCC(C)(C)[C@@H]3[C@H](O)[C@H](OC(C)=O)[C@@]2(C)O1 [COLFORSIN]
AC50: 18 µM
//
Molecule: CC(=O)N[C@@H](CS)C(=O)O [ACETYLCYSTEINE]
AC50: > 30 µM
//
Molecule: CCC(C)C1(CC)C(=O)NC(=O)NC1=O (stereo unspecified) [BUTABARBITAL]
AC50: > 30 µM
//
Molecule: COc1cc2nccc(Oc3ccc(NC(=O)C4(C(=O)Nc5ccc(F)cc5)CC4)cc3)c2cc1OC [CABOZANTINIB]
AC50: 2.9 µM
//
Molecule: COCC1=C(C(=O)O)N2C(=O)[C@@H](NC(=O)/C(=N\OC)c3csc(N)n3)[C@H]2SC1 [CEFPODOXIME]
AC50: > 30 µM

[ask] Consider the molecule CCC(=O)O[C@H]1CC[C@H]2[C@@H]3CCC4=CC(=O)CC[C@]4(C)[C@H]3CC[C@]12C [TESTOSTERONE PROPIONATE] and give its measured AC50.
[reply] > 30 µM

[ask] Consider the molecule O=C(O)c1ccccc1Nc1cc(Cl)ccc1C(=O)O [LOBENZARIT] and give its measured AC50.
[reply] > 30 µM

[ask] Consider the molecule CC(=O)O[C@]1(C(C)=O)CC[C@H]2[C@@H]3C=C(C)C4=CC(=O)CC[C@@H]4[C@H]3CC[C@@]21C [NOMEGESTROL ACETATE] and give its measured AC50.
[reply] > 30 µM

[ask] Consider the molecule CC(S)C(=O)NCC(=O)O (stereo unspecified) [TIOPRONIN] and give its measured AC50.
[reply] > 30 µM

[ask] Consider the molecule C#C[C@]1(OC(C)=O)CC[C@H]2[C@@H]3CCC4=C/C(=N/O)CC[C@@H]4[C@H]3CC[C@@]21CC [NORGESTIMATE] and give its measured AC50.
[reply] > 30 µM

[ask] Consider the molecule C[C@]12CCC(=O)C(O)=C1CC[C@@H]1[C@@H]2CC[C@]2(C)C(=O)CC[C@@H]12 [FORMESTANE] and give its measured AC50.
[reply] > 30 µM

----------
# Lookup of reported AC50 keyed by entry
- Tested target: Neuronal acetylcholine receptor subunit alpha-4 (Homo sapiens); also: assay procedure not described here
- Sequence (P43681 whole entry): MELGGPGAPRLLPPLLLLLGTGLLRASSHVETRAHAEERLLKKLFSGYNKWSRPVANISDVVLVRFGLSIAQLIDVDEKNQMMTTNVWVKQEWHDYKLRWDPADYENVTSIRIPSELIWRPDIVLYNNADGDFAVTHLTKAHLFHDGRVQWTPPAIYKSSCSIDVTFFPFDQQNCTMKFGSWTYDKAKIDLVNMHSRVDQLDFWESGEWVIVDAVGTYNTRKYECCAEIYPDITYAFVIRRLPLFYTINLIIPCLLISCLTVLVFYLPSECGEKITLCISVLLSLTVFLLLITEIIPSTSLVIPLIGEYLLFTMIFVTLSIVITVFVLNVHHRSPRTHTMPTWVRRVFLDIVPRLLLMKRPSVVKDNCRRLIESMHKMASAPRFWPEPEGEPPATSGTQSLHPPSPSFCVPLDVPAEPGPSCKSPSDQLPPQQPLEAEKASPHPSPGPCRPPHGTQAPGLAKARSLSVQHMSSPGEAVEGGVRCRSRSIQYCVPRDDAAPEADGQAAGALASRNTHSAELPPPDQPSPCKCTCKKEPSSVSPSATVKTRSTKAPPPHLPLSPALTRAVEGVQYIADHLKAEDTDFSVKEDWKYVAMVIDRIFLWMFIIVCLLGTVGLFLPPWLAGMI

Before answering, review these 5 worked examples.
Compound: Nc1ncn([C@H]2C[C@H](O)[C@@H](CO)O2)c(=O)n1
Measurement kind: AC50
Result: > 30 µM

Compound: CC(CCc1ccc(O)cc1)NCCc1ccc(O)c(O)c1 (centres undefined)
Measurement kind: AC50
Result: > 30 µM

Compound: Cn1cnc2c(F)c(Nc3ccc(Br)cc3Cl)c(C(=O)NOCCO)cc21
Measurement kind: AC50
Result: > 10 µM

Compound: CC(C)NCC(O)c1ccc(O)c(O)c1 (centres undefined)
Measurement kind: AC50
Result: > 30 µM

Compound: COc1cc(N)c(Cl)cc1C(=O)NC1CCN(Cc2ccccc2)CC1 [CLEBOPRIDE]
Measurement kind: AC50
Result: 24 µM

[ask] Consider the compound CC(C)[C@H](N)C(=O)OCC(CO)OCn1cnc2c(=O)nc(N)[nH]c21 (some centres undefined) and give its measured AC50.
[reply] > 30 µM

[ask] Consider the compound `O=C1CN(/N=C/c2ccc(-c3ccc([N+](=O)[O-])cc3)o2)C(O)=N1` and give its measured AC50.
[reply] > 10 µM

[ask] Consider the compound CCN1CCCC1CNC(=O)c1cc(S(=O)(=O)CC)c(N)cc1OC (centres undefined) [AMISULPRIDE] and give its measured AC50.
[reply] > 30 µM

[ask] Consider the compound `O=C(O)c1ccccc1Nc1cc(Cl)ccc1C(=O)O` and give its measured AC50.
[reply] > 30 µM
